- tested-target: human TrkA (Homo sapiens, UniProt P04629)
- Construct: Full length human TRKA, TRKB and TRKC cDNAs were synthesized by Blue Heron Biotechnology; expressed in transfected cells
- Sequence (P04629 33-796): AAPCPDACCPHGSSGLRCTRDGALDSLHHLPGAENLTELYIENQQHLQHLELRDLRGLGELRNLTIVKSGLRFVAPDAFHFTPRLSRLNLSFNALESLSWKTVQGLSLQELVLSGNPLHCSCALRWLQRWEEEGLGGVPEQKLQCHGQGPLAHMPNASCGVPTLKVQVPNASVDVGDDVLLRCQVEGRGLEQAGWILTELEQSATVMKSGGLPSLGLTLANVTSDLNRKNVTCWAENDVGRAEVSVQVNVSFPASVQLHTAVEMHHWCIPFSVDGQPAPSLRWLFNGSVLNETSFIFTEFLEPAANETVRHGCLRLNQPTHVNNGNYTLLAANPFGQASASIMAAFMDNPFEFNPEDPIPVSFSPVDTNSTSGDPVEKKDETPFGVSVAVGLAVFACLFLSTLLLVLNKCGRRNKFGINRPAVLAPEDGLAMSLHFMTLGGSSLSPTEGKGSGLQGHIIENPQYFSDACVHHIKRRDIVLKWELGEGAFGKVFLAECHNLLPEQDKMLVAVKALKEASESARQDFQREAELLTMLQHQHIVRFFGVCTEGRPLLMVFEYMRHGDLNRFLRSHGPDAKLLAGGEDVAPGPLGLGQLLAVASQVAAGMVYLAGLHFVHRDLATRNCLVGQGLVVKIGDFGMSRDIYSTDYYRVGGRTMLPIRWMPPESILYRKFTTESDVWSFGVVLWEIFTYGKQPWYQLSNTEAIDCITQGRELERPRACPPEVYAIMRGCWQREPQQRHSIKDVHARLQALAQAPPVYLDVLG
- experimental-details: Inhibition of NGF-induced beta-lactamase activity in TrkA-NFAT-bla CHO-K1 cells
- Format: cell-based
- test-conditions: 30 min pretreatment, NGF at EC80 0.77 nM, 5 h; read-out: IC50, TrkA, NGF
observation-type: IC50
Answer shape: numeric part, then the unit.

Record summary for CC(C)(C)c1cc(/C=C(\C#N)C(N)=S)cc(C(C)(C)C)c1O : reported IC50 = 1330 nM

* * *

- tested-target: human TrkB (Homo sapiens)
- Construct: Full length human TRKA, TRKB and TRKC cDNAs were synthesized by Blue Heron Biotechnology; expressed in transfected cells
- Sequence (Q16620 32-838 isoform Q16620-4 limits assumed): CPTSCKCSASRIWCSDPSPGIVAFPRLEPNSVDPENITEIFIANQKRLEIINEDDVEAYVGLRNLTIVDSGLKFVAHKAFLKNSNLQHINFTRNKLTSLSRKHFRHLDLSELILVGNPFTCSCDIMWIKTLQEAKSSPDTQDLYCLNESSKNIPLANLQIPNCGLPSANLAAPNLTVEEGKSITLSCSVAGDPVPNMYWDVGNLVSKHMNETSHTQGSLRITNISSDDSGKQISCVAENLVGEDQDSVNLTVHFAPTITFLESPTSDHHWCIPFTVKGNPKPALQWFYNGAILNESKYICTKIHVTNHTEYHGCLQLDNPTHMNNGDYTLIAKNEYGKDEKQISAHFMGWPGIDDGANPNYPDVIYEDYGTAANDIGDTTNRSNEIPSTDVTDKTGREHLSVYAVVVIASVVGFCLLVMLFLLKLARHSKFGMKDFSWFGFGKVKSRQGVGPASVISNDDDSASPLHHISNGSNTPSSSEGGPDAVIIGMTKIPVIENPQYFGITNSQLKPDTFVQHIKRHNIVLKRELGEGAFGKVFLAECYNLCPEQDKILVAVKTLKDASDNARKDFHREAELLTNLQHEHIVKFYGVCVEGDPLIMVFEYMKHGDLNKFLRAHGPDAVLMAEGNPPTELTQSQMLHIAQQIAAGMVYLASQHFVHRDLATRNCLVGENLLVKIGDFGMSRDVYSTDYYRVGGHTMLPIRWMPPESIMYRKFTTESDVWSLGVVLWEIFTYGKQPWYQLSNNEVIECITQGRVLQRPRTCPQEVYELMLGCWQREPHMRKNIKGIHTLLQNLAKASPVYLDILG
- experimental-details: Inhibition of BDNF-induced beta-lactamase activity in TrkB-NFAT-bla CHO-K1 cells
- Format: cell-based
- test-conditions: 30 min pretreatment, BDNF at EC80 1 nM, 5 h; read-out: IC50, TrkB, BDNF
Listed molecules paired with reported IC50
Reply with just the number (in nM).

[[record]]
molecule = "CC(C)(C)c1cc(/C=C(\\C#N)C(N)=S)cc(C(C)(C)C)c1O"
tested_target = "human TrkB (Homo sapiens)"
observation_type = "IC50"
output_unit = "nM"
test_result = 1010


With those in mind, consider the next molecule.
The recorded IC50 for entry COC(=O)[C@@]1(O)C[C@H]2O[C@]1(C)n1c3ccccc3c3c4c(c5c6ccccc6n2c5c31)C(=O)NC4 [K252a] equals 11
